Read-out: Cyclin Dependent Kinase Inhibitor 1A (CDKN1A), CDKN1A (gene 1026)
EXPERIMENT SUMMARY: LTEA_HepaRG_CDKN1A: Life Technologies and Expression Analysis (LTEA) Assay for Cyclin Dependent Kinase Inhibitor 1A (CDKN1A) using HepaRG (AID 2283450)
EXPERIMENTAL SETUP: mRNA level, 48 h; actives raise or lower the signal
Active and inactive are the calls of the source. Rule for the calls: active = hit-call score of the fitted dose curve at least 0.9, where 1 is the maximum; inactive = score below 0.9.
Field 'call' accepts true (active), false (inactive)

molecule="O=C1C2(Cl)C3(Cl)C4(Cl)C(Cl)(Cl)C5(Cl)C3(Cl)C1(Cl)C5(Cl)C24Cl (stereo not drawn)" group_label=true
molecule=CCN1CCC2(CC1)COc1cc3c(cc12)N(C(=O)c1ccc(-c2ccc(-c4nnc(C)o4)cc2C)cc1)CC3 group_label=true
molecule="CCC(=O)C(CC(C)N(C)C)(c1ccccc1)c1ccccc1 (stereo not drawn)" group_label=false
molecule=ClCC(Cl)CCl group_label=false
molecule="ClC1(Cl)C2(Cl)C3(Cl)C4(Cl)C(Cl)(Cl)C5(Cl)C3(Cl)C1(Cl)C5(Cl)C24Cl (stereo not drawn)" group_label=false
molecule=CC(C)(OO)c1ccccc1 group_label=false
molecule=CCCCCCCCc1ccc(O)cc1 group_label=false

Consider the additional molecule presented here.
Query: recorded result category for `NC(=O)O` in this test
false
